B1: Azoarcus group I ribozyme (parent)
chain: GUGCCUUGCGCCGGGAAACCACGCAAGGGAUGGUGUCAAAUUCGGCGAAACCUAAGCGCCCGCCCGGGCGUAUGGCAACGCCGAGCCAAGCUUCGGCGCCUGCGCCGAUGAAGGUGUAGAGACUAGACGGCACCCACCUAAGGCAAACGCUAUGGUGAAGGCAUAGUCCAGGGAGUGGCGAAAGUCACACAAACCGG

Variants of: B1
Assay: reverse-splicing fitness (ratio to wild type); higher = more active; in vitro selection; Mg2+ level not given
assay_readout: reverse-splicing fitness
Format: numeric value only, no unit, no commentary.

Qu. Annotate the variant C82U A120U A145U C150G C169U U176G with its measured reverse-splicing fitness.
Ans. 0.00186

Qu. Annotate the variant C82U A120U A145C C150A C169A U176A with its measured reverse-splicing fitness.
Ans. 0.00177

Qu. Annotate the variant C82U A111G A120C A145C C169G U176A with its measured reverse-splicing fitness.
Ans. 0.0164

Qu. Annotate the variant C82A A111U A120G A145G C150A C169G U176C with its measured reverse-splicing fitness.
Ans. 0.0255

Qu. Annotate the variant A120C A145G U176C with its measured reverse-splicing fitness.
Ans. 0.652

Qu. Annotate the variant C82A A111C A145U C150A C169A with its measured reverse-splicing fitness.
Ans. 0.00982

Qu. Annotate the variant A111C A120C A145G U176G with its measured reverse-splicing fitness.
Ans. 0.0393

Qu. Annotate the variant C82G A111G A120C C169A U176A with its measured reverse-splicing fitness.
Ans. 0.017

Qu. Annotate the variant C82U A111C A145U C150A U176G with its measured reverse-splicing fitness.
Ans. 0.00817

Qu. Annotate the variant C82U A111C A145U C150A C169A U176A with its measured reverse-splicing fitness.
Ans. 0.0124

Qu. Annotate the variant C82G A111C A120C A145U with its measured reverse-splicing fitness.
Ans. 0.0547

Qu. Annotate the variant C82U A111U A145G C150A C169U U176C with its measured reverse-splicing fitness.
Ans. 0.0133

Qu. Annotate the variant A111U A120C C150G U176A with its measured reverse-splicing fitness.
Ans. 0.0104

Qu. Annotate the variant A120G C169G U176G with its measured reverse-splicing fitness.
Ans. 0.0117

Qu. Annotate the variant A120G A145C C150U C169U U176G with its measured reverse-splicing fitness.
Ans. 0.00915

Qu. Annotate the variant A120C A145G C169U U176G with its measured reverse-splicing fitness.
Ans. 0.015

Qu. Annotate the variant C82A A111C A145C C169G U176A with its measured reverse-splicing fitness.
Ans. 0.0269

Qu. Annotate the variant A111C A120C A145C C150U C169G U176A with its measured reverse-splicing fitness.
Ans. 0.0202

Qu. Annotate the variant C82A A111U A120G A145U C150A C169U U176C with its measured reverse-splicing fitness.
Ans. 0.0164

Qu. Annotate the variant C82A A120C A145G C150U C169G U176A with its measured reverse-splicing fitness.
Ans. 0.0144

Qu. Annotate the variant C82U A111C A145C C169G U176C with its measured reverse-splicing fitness.
Ans. 0.0207

Qu. Annotate the variant C82A A120G A145G C150G U176G with its measured reverse-splicing fitness.
Ans. 0.00572

Qu. Annotate the variant A111C C150U C169U U176G with its measured reverse-splicing fitness.
Ans. 0.00793

Qu. Annotate the variant C82U A111U A120C C150A with its measured reverse-splicing fitness.
Ans. 0.0106

Qu. Annotate the variant A111C A120C A145U C150A C169G U176C with its measured reverse-splicing fitness.
Ans. 0.0146

Qu. Annotate the variant C82G A111G A120U A145C C150U C169G U176A with its measured reverse-splicing fitness.
Ans. 0.00296

Qu. Annotate the variant A111G A145G C150A C169U U176G with its measured reverse-splicing fitness.
Ans. 0.00641

Qu. Annotate the variant C82U A120G A145G C150U C169U U176A with its measured reverse-splicing fitness.
Ans. 0.0207

Qu. Annotate the variant C82G A111U A120U A145G C150U C169U U176C with its measured reverse-splicing fitness.
Ans. 0.00501

Qu. Annotate the variant A120G A145U C150G C169G with its measured reverse-splicing fitness.
Ans. 0.0994

Qu. Annotate the variant A111U A120G A145G C150G C169A with its measured reverse-splicing fitness.
Ans. 0.0157

Qu. Annotate the variant C82U A111C A120C A145U C169G U176A with its measured reverse-splicing fitness.
Ans. 0.013

Qu. Annotate the variant C82U A111C A145C C150A C169U U176A with its measured reverse-splicing fitness.
Ans. 0.0154

Qu. Annotate the variant A111C A120C A145G C169A U176A with its measured reverse-splicing fitness.
Ans. 0.0222

Qu. Annotate the variant A111C A120U A145U C150U C169A U176G with its measured reverse-splicing fitness.
Ans. 0.00217

Qu. Annotate the variant C82A A111G A120U C150A C169A U176G with its measured reverse-splicing fitness.
Ans. 0.00194

Qu. Annotate the variant C82G A111G A120U U176A with its measured reverse-splicing fitness.
Ans. 0.018

Qu. Annotate the variant C82U A111G A120G C150U C169G U176A with its measured reverse-splicing fitness.
Ans. 0.0144

Qu. Annotate the variant A111C A120C A145G C150U U176G with its measured reverse-splicing fitness.
Ans. 0.0297

Qu. Annotate the variant C82G A120G A145G C150U C169A U176A with its measured reverse-splicing fitness.
Ans. 0.0171

Qu. Annotate the variant C82A A111C A120G A145U C150G C169A U176G with its measured reverse-splicing fitness.
Ans. 0.00558

Qu. Annotate the variant C82G A111U A120C C150A C169U with its measured reverse-splicing fitness.
Ans. 0.0114

Qu. Annotate the variant A111C A120U C150G C169U with its measured reverse-splicing fitness.
Ans. 0.00955

Qu. Annotate the variant C82G A111U A120G C150A with its measured reverse-splicing fitness.
Ans. 0.00998

Qu. Annotate the variant C82U A120U A145C C150A C169G U176C with its measured reverse-splicing fitness.
Ans. 0.00196

Qu. Annotate the variant C82G A111C A145U C169U with its measured reverse-splicing fitness.
Ans. 0.0133

Sourced from the RNAGym collection of RNA variant scans (doi:10.1093/molbev/msab373)
